The measurements presented in this section are drawn from the supplement of paper PMC6555819.

# Test system: PPARg:RXRa 30nM:10nM, anti-RXR (NR concentration 30 nM, RXRa partner concentration 10 nM)
# Assay Text: PBM binding z-score (relative to random genomic background probes); higher = stronger binding; sequences stand for … in GC…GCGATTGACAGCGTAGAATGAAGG
Property Label: PBM binding z-score
One number for each entry.

>  <Sequence Code>
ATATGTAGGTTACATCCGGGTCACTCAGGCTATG

>  <PBM binding z-score>
2.68

$$$$
>  <Sequence Code>
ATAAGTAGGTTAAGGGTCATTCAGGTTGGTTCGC

>  <PBM binding z-score>
10.7

$$$$
>  <Sequence Code>
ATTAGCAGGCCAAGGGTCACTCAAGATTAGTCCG

>  <PBM binding z-score>
6.52

$$$$
>  <Sequence Code>
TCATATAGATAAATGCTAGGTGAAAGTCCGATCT

>  <PBM binding z-score>
3.93

$$$$
>  <Sequence Code>
TTACCAAGGTGAAATGTCGTTGATGCACGCCTTG

>  <PBM binding z-score>
1.94

$$$$
>  <Sequence Code>
TAGCCTAGGTCTTTGGGCCAGTATAGTACGCATC

>  <PBM binding z-score>
-0.609

$$$$

Kindly give each listed record's PBM binding z-score.
1. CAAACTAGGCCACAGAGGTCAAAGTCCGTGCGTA
2. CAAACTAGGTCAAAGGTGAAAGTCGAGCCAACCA
3. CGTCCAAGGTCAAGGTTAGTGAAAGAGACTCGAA

Ans.
4.5
12.4
2.08
